# system: SARS-CoV-2 Alpha (B.1.1.7) spike protein (on reporter virus particles) (SARS-CoV-2, UniProt P0DTC2 14-1273)
# experimental-protocol: cell-based or functional assay
Parameter: PsV neutralization IC50. Scope: all listed entries.
Report only the number, with the unit µg/mL understood.

These solved cases illustrate the format of a correct answer.
- binder: "A-9 (antibody, V domains shown) VH: EVQLVESGGGLVKPGRSLRLSCAASGFTFADYAMSWFRQAPGKGLEWVGFIRSKPYGGTTEYAASVKGRFTISRDDSKSIAYLQMNSLKTEDTAVYYCSRDPWYCSGGDCYAVTGSWFDPWGQGTLVTVSS VL: DIVLTQSPSSLSASVGDRVTITCQASQDIKKYLNWYQQKPGKAPKLLIYDVSNLETGVPSRFSGSGSGTDFTFTISSLQPEDVAIYYCQQYDNLPQTFGQGTKVDIK"
  measurement-label: "PsV neutralization IC50"
  numeric-readout: 0.019
- binder: "A-18 (antibody, V domains shown) VH: EVQLLESGGGLVQPGGSLRLSCAASGFTFSRYWMHWVRQAPGKGLVWVSRINSDGSSTTYADSVKGRFTISRDNAKNTLYLQMNSLRAEDTAVYYCARELYYYDSRGAEEGEGWFDPWGQGTLVTVSS VL: QSVLTQPPSVSGAPGQRVTISCTGISSNIGAGYDVHWYQQLPGTAPKLLIYGNSNRPSGVPDRFSASKSGTSAPLAITGLQAEDEADYYCQSSDRSLSGSVFGTGTKLTVL"
  measurement-label: "PsV neutralization IC50"
  numeric-readout: 0.316
- binder: "A-6 (antibody, V domains shown) VH: QVQLVQSGGGVVQPGRSLRLSCAASGFTFSNFAMHWVRQAPGKGLEWVAVILYDGINKYYADSVKGRFTISRGNSKNTLSLQMNSLRAEDTAVYYCARAQNYYDRSGTLQLDAFDIWGQGTMVTVSS VL: DIVMTQSPSSLSASVGDRVTITCRASQGIRNDLGWYQQKPGKAPKLLIYAASSLQSGVPSRFSGSGSGTDFTLTISSLQPEDFATYYCLQDYNYPLTFGGGTKVEIK"
  measurement-label: "PsV neutralization IC50"
  numeric-readout: 0.192

Moving on to the next binder.
PsV neutralization IC50 for A-16 (antibody, V domains shown) VH: QVQLVESGGGLVQPGRSLRLSCAASGFTFDDYAMHWVRQAPGKGLEWVSGISWNSGTIGYADSVKGRFIISRDNAKNSLYLQMNSLRGEDMALYYCGKDRKREDPSLGGMDVWGQGTTVTVSS VL: SYELTQPPSVSVAPGQTARITCGGNNIGSKSVHWYQQKPGQAPVLVVYDDTDRPSGIPERFSGSNSGNTATLTISRVEAGDEADYYCQVWDSSSDHYVFGTGTKLTVL ?
0.025
